target: T1, human MSLN-R3 on HEK293T-hMSLN-R3 recombinant cells (human, UniProt Q13421 487-606); test: FACS, HEK293T-hMSLN-R3 cells
T1 construct: the C-terminal limit is uncertain; also called human MSLN-R3 membrane protein
T1 sequence (Q13421 495-614): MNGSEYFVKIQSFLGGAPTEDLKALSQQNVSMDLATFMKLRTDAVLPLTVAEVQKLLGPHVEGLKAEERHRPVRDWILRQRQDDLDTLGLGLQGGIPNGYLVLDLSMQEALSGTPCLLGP
# Maximum_MFI values compiled below
Expressed in MFI, but write only the number.

// known answers, use as guide
F7.33.24-H10 (scFv, not shown: small tags and cut ends, also called S009-F7.33.24 humanized antibody VH2a + VL1) scFv: EVQLVQSGAEVKKPGASVKVSCKASGYTFTSYWMHWVRQAPGQGLEWMGNVNPSNAGSNYNEKFKNRVTITVDKSASTAYMELSSLRSEDTAVYYCAPHYIGSRPGFAYWGQGTLVTVSSGGGGSGGGGSGGGGSDIVMTQSPDSLAVSLGERATINCKASQNVGTNIAWYQQKPGQSPKALIYSASYRYSGVPDRFSGSGSGTDFTLTISSLQAEDVAVYYCQQYNSYPLTFGGGTKVEIK; 1560
F7.33.24-H4 (scFv, not shown: small tags and cut ends, also called S009-F7.33.24 humanized antibody VH1a + VL1) scFv: EVQLVQSGAEVKKPGASVKVSCKASGYTFTSYWMHWVRQAPGQRLEWMGNVNPSSGGSNYNEKFKNRVTITVDKSASTAYMELSSLRSEDTAVYYCAPHYIGSRPGFAYWGQGTLVTVSSGGGGSGGGGSGGGGSDIVMTQSPDSLAVSLGERATINCKASQNVGTNIAWYQQKPGQSPKALIYSASYRYSGVPDRFSGSGSGTDFTLTISSLQAEDVAVYYCQQYNSYPLTFGGGTKVEIK; 1960

Now examine the next entry.
// fetch Maximum_MFI given entry F7.33.24-H7 (scFv, not shown: small tags and cut ends, also called S009-F7.33.24 humanized antibody VH2 + VL1) scFv: EVQLVQSGAEVKKPGASVKVSCKASGYTFTSYWMHWVRQAPGQGLEWMGNVNPSNGGSNYNEKFKNRVTITVDKSASTAYMELSSLRSEDTAVYYCAPHYIGSRPGFAYWGQGTLVTVSSGGGGSGGGGSGGGGSDIVMTQSPDSLAVSLGERATINCKASQNVGTNIAWYQQKPGQSPKALIYSASYRYSGVPDRFSGSGSGTDFTLTISSLQAEDVAVYYCQQYNSYPLTFGGGTKVEIK
1650
